Data provenance: PubChem BioAssay

- Method Notes: binders of probe aFGF2 on microarray, primary screen, stem cell growth factor project, biochemical, small-molecule microarray, fluorescence 635/667 (AID 1067);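 further: measures binding of biotinylated aFGF2 protein to printed compounds on slides; z-score merges feature fluorescence and signal-to-noise across triplicate slides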
- Assay Conditions: higher = more signal
Label 1 when composite z-score is at or above 0.03; otherwise label -1.

Molecule	Class Label
CC(C)C(=C=CC[C@H](O)c1cccc(OCCO)c1)C[C@H](O)COCc1ccccc1	-1
O=C(CS)NCCCCCCNC(=O)[C@H]1C[C@H]2C(=O)N3CCC[C@H]3C(=O)N2[C@H]1c1cccc(OCCO)c1	-1
O=C1OCCC=C[C@H]2OC34C=CCN(Cc5ccccc5)C(=O)[C@H]3N(CCCCCO)C(=O)[C@@H]4C12 (stereo not given in full)	-1

Proceed to the following item.
Test whether the molecule CCOC(=O)C1=CCC(C(C)(C)C)N(S(=O)(=O)c2ccc(C)cc2)C1 (stereo not given) records composite z-score of 0.03 or higher. 1

---

- System: Plasmodium falciparum Sir2 (PF13_0152, Sir2A)
- Method Notes: pfSir2 binders on small-molecule microarrays, primary screen, biochemical, small-molecule microarray, 635 nm fluorescence (AID 1098);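 further: score merges spot fluorescence intensity with its signal-to-noise ratio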
- Assay Conditions: small-molecule microarray binding, fluorescence 635 nm; higher = more signal
The reader will find reported composite z-score values listed item by item below.
Field format: numeric only.

Compound	Test Result
COc1ccc(C(O)C2C=CC3C(=O)NC(=O)C3N2Nc2ccccn2)cc1OCc1ccccc1 (stereo unspecified)	0.524
CC1CC/C=C\[C@H]2OC34C=CCN(Cc5ccccc5)C(=O)[C@H]3N(CCCCCO)C(=O)[C@@H]4C2C(=O)O1 (stereo partly specified)	-0.0545
C=CCNC(=O)[C@@H]1[C@H]2C(=O)O[C@H](c3ccccc3)[C@H](c3ccccc3)N2[C@H](c2ccc(O)cc2)[C@@]12C(=O)N(C(=O)OCCOC)c1ccccc12	1.03
COc1ccc(C(=O)Nc2cccc(CN3C(=O)[C@]4(O[C@H](CC(=O)N5CCC[C@H]5CO)[C@@H]([Si](C)(C)c5ccc(OC)cc5)[C@@H]4C)c4ccccc43)c2)cc1	1.27
COc1cc2c(cc1OC)CN(C(=O)[C@@H]1[C@H]3C(=O)O[C@H](c4ccccc4)[C@H](c4ccccc4)N3[C@H](c3ccccc3OCCO)[C@@]13C(=O)Nc1ccc(C#CCNC(N)=O)cc13)CC2	1.58

Next compound, composite z-score to be filled in.
Fill in the blank: the reported composite z-score of COC(=O)[C@@]1(Cc2ccc(F)cc2)[C@H]2c3cc(C(=O)N(C)C)n(CCc4ccccn4)c3C[C@H]2CN1C(=O)c1ccccc1 is ____. 0.219

---

- Tested On: Calmodulin-1 (Homo sapiens) (UniProt P0DP23)
- Method Notes: CALM1 binders on microarrays, EGTA buffer, profiling panel, biochemical, small-molecule microarray, Cy5-labelled CALM1 (AID 1111);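 further: labelled calmodulin applied in Tris saline Tween buffer holding calcium plus EGTA and DTT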
- Assay Conditions: Cy5-CALM1 binding fluorescence, higher = more signal
Readout Type: composite z-score

Examples with their reported composite z-score follow.
Compound	Test Result
O=C1O[C@H](c2ccccc2)[C@H](c2ccccc2)N2[C@H]1[C@@H](C(=O)O)[C@]1(C(=O)Nc3ccc(C#CC4(O)CCCCCC4)cc31)[C@H]2c1ccc(OCCO)cc1	1.89
CN(C)CCCCNC(=O)[C@H]1C[C@H]2C(=O)N[C@@H](Cc3ccccc3)C(=O)N2[C@H]1c1ccc(O)cc1	0.561
CC(C)OC(=O)CC(=O)CC(O)c1ccc(C#N)cc1 (stereo not given)	-1.49
O=C(CS)NCCCCCCNC(=O)[C@H]1C[C@H]2C(=O)N3CCC[C@H]3C(=O)N2[C@H]1c1cccc(OCCO)c1	0.803

Fill in the blank: the reported composite z-score of CC(C)c1ccc(NN2C(C(O)c3cccc(O)c3)C=CC3C(=O)N(c4ccccc4)C(=O)C32)cc1 (stereo not given) is ____. 1.93

Now this one: COc1c(C)cc(-c2cc3c(c(-c4ccc(Oc5ccccc5)cc4)n2)[Si](C(C)C)(C(C)C)OC3)cc1C 0.354

Now this one: O=C1OCC=C[C@H]2OC34C=CCN(c5ccc(Cl)cc5)C(=O)[C@H]3N(CCCCCCO)C(=O)[C@@H]4[C@@H]12 (stereo not given in full) -0.123

Now this one: CCOC(=O)C1=C[C@@H](C(C)C)N(S(=O)(=O)c2ccc(C)cc2)[C@H]1c1ccc(C(C)C)cc1 1.33

Now this one: COCCOC(=O)N1C(=O)[C@@]2(c3cc(C#CCNC(N)=O)ccc31)[C@H](c1ccccc1OCCO)N1[C@H](c3ccccc3)[C@H](c3ccccc3)OC(=O)[C@H]1[C@@H]2C(N)=O 0.451

Now this one: Cc1ccc([C@H]2[C@H](C(=O)O)[C@H](Sc3ccccc3)[C@@H](C(C)C)N2S(=O)(=O)c2ccc(C)cc2)cc1 1.36

---

- Tested on: Inhibin beta A chain (activin A)
- Method Notes: INHBA (activin A) binders on microarrays, primary screen, biochemical, small-molecule microarray, 635 nm fluorescence scan (AID 1107);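 further: mouse activin A protein probed at 4.33 µg/mL on printed slides; score merges bound-protein fluorescence near 667 nm with spot signal-to-noise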
- Assay Conditions: small-molecule microarray binding, higher = more signal
Readout Type: composite z-score
Field format: numeric only.

Examples with their reported composite z-score follow.
Compound	Readout Type	Test Result
CCOC(=O)C1=CCC(C(C)(C)C)N(S(=O)(=O)c2ccc(C)cc2)C1 (stereo not given)	composite z-score	0.136
C=C(COC)C(=O)CC[C@H](OC(C)=O)c1cccc(OCCO)c1	composite z-score	0.35
CC(C)N1C(=O)C[C@@](C(=O)NCc2ccccc2)(c2ccc([N+](=O)[O-])cc2)[C@H]1c1ccc(CO)cc1	composite z-score	0.0614
C=C(CCCC)/C(=C/C[C@H](OC(C)=O)c1ccc(CO)o1)c1cnc2ccccc2c1	composite z-score	1.69
CCOC(=O)C[C@H]1[C@H](OC(=O)c2ccc(-c3ccccc3)cc2)[C@@H](NC(=O)c2ccc(-c3ccccc3)cc2)c2cc(OCCCO)ccc2N1C(=O)Cc1ccc(OC)cc1	composite z-score	0.638

Fill in the blank: the reported composite z-score of COc1cc2c(cc1O)C(C)N(Cc1cccc(OC(F)(F)F)c1)CC2 (stereo not given) is ____. 0.902

Now this one: CCCCC(O)C1C=CC2C(=O)N(C3CCCCC3)C(=O)C2N1Nc1ccc(OC)cc1 (stereo not given) 0.943

Now this one: C=CCOC(=O)[C@@H]1[C@H]2C(=O)O[C@H](c3ccccc3)[C@H](c3ccccc3)N2[C@H](c2ccc(OCCOC(=O)[C@@H]3C[C@@H]4C(=O)NCC(=O)N4[C@@H]3c3cccc(OCCO)c3)cc2)[C@@]12C(=O)Nc1ccc(I)cc12 0.884

---

- Method Notes: small-molecule binders of probe aNOTCH2, primary screen, biochemical, small-molecule microarray, 635/667 nm fluorescence (AID 1121);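 further: score merges feature fluorescence read at 667 nm with its signal to noise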
- Assay Conditions: higher = more signal
The reader will find reported composite z-score values listed item by item below.
Field format: numeric only.

Molecule	composite z-score
CCCCCN1CC=CC23O[C@@H]4/C=C\CCCOC(=O)C4[C@H]2C(=O)N(CCCCCCO)[C@@H]3C1=O (stereo partly drawn)	-0.153
CCCCCCCCCCC(O)C1C=CC2C(=O)N(Cc3ccccc3)C(=O)C2N1n1cnnc1 (stereo not drawn)	0.0605
CC(C)C[C@@H]1NC(=O)[C@H]2C[C@@H](C(=O)NCCCCCNC(=O)CS)[C@@H](c3cccc(OCCO)c3)N2C1=O	-0.0358
CCCCC=C[C@@H](NC(=O)c1ccc(C(=O)OC)cc1)c1ccccc1	-0.171
COCCOC(=O)N1C(=O)[C@@]2(c3cc(C#CCC(C(=O)OC)C(=O)OC)ccc31)[C@H](c1ccc(O)cc1)N1[C@H](c3ccccc3)[C@H](c3ccccc3)OC(=O)[C@H]1[C@@H]2C(N)=O	0.0232
NCCCCCNC(=O)[C@H]1C[C@H]2C(=O)NCC(=O)N2[C@H]1c1cccc(OCCO)c1	-0.136
Cc1ccccc1C(O)C1C=CC2C(=O)N(C)C(=O)C2N1Nc1ccccc1 (stereo not drawn)	-0.0168

Next molecule, composite z-score to be filled in.
Fill in the blank: the reported composite z-score of COCCOC(=O)N1C(=O)[C@@]2(c3cc(C#CCNC(N)=O)ccc31)[C@H](C(=O)N1CCN(c3ncccn3)CC1)[C@H]1C(=O)O[C@H](c3ccccc3)[C@H](c3ccccc3)N1[C@@H]2c1ccccc1OCCO is ____. 0.0066

---

The reader will find reported composite z-score values listed item by item below.
- Tested on: Fibrinogen (Alexa647-labelled)
- Method Notes: fibrinogen binders on compound microarrays, profiling panel, artefact control for SMM control-protein annotation, biochemical, small-molecule microarray, 635/667 nm fluorescence (AID 1131);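 further: z-score merges 667 nm fluorescence with per-spot signal-to-noise over triplicate slides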
- Assay Conditions: fibrinogen-A647 binding fluorescence, higher = more signal

Molecule	Tested On	composite z-score
CC(C)=CCCC(C)=CC(O)C1C=CC2C(=O)N(c3ccccc3)C(=O)C2N1Nc1ccccc1 (stereo not drawn)	Fibrinogen (Alexa647-labelled)	1.01

Fill in the blank: the reported composite z-score of COC(=O)[C@@]1(Cc2ccccc2)N=C(c2ccc(OCCCO)cc2)O[C@H]1c1ccccc1N=[N+]=[N-] is ____. 0.0857

Now this one: CCCNC(=O)[C@@H]1c2ccccc2C(=O)N(Cc2ccccc2)[C@H]1c1ccc(CO)cc1 0.213

Now this one: O=C1c2ccccc2[C@@]2(Cc3ccccc3N(Cc3ccccc3)C2=O)[C@H](c2ccc(CO)cc2)N1C1CCCCC1 -0.0673
